# Test system: MS2 coat protein
# assay info: apparent KD of MS2 coat protein; higher = weaker reporter binding
# condition label: Eterna round: R107; input ligand: tryptophan 2.4 mM
Task for the reader: assign each of the following sequences its reported apparent KD of MS2 coat protein.
Give bare numbers, in nM.

Some sequences with recorded apparent KD of MS2 coat protein:
INSERT INTO results (sequence_record, value_kind, unit_of_measure, value) VALUES
  ('AGCAUGUUCAGAAGGAGCGUGCAAGGGUACAUUCGUAGGACAUGAGGAUCACCCAUGUAAGCACAGGUAGGUCGCUGGACAUGCU [Arg B SS t5]', 'apparent KD of MS2 coat protein', 'nM', 107),
  ('UCGCUCUGGGUGAGAUCCGGAGAUGUGGAAGGAGCGCUGGUUCCAGCAGGUAGGUCGCCAACGGACAUGAGGAUCACCCAUGUAC [Same State - Arginine A (Freestyle 13)]', 'apparent KD of MS2 coat protein', 'nM', 45.9),
  ('CUGCCAUGCAGAGAUACCAGUGCGCUCAGCACAUGAGGAUCACCCAUGUUGGCUGCCGAUCACCCUUGGCAGCUCUGCAUGGCAG [#04 Same State - Theophylline B]', 'apparent KD of MS2 coat protein', 'nM', 8.66),
  ('GGGUGGUAGGCGGCCGCCACUGAUUUUUAUUUAUAGAUGACAUGAGGAUCACCCAUGUUUAUGUGCAGGACCGGGCCUGUUGUGG [aaaR]', 'apparent KD of MS2 coat protein', 'nM', 13.9);

Provide apparent KD of MS2 coat protein for all items below, preserving their order.
1. UAAUAGGUCCAGAACGUACCAGGUGAUCAACGAGGACCGGUACGGCCGCCACUCGAAACAUGAGGAUCACCCAUGUAACUGGACC [|T'-M'-Trp-Ms2|_Design 2_ML]
2. UUAGAUAUGACAGAUACCAGCGUGUUGUAGAACAUGAGGAUCACCCAUGUAGUGAUCGUGCGCCCUUGGCAGCUGGUAUGUUUGG [7.W]

[61.4, 788]

---

# Test system: MS2 coat protein
# assay info: apparent KD of MS2 coat protein; designed switch direction (-1 OFF switch, 1 ON switch): -1; higher = weaker reporter binding
# condition label: input ligand: FMN 200 uM
Task for the reader: assign each of the following sequences its reported apparent KD of MS2 coat protein.
Answers are plain numbers, in nM.

Some sequences with recorded apparent KD of MS2 coat protein:
INSERT INTO assay_data (sequence_record, target_under_test, unit_of_measure, value) VALUES
  ('AAGAAAAGGAGAGGAUAUGCGAAAGGAAGUGUAGCAGAAGGCUUCGGGUAAGUCCACAUGAGGAUCACCCAUGUUAAUAAAAGA [PowerStrip EXNG 1.19] (Eterna round: R96, puzzle: Exclusion NG 1)', 'MS2 coat protein', 'nM', 345),
  ('UGAAGGUCAGGAUAUGAGUCUAUCUGACGCAGACAUAGACAUUAGAAGGGACAUGAGGAUCACCCAUGUGGGAC [Eternabot (L1) Solution 29] (Eterna round: R97, puzzle: Exclusion 4)', 'MS2 coat protein', 'nM', 106),
  ('UUAAUGGUUGUGAGGAUAUCGGAUAGAUAGAUAUUCGAGAAGGCACAUGAGGAUCACCCAUGUGUGAUCAGAAA [Brourd''s EX4 #61] (Eterna round: R97, puzzle: Brourd''s mod of Exclusion 4)', 'MS2 coat protein', 'nM', 410),
  ('UGUUGUUCAGGAUAUGAUGUAUAAUACAUGAGGAUCACCCAUGUAGAUCCUGCUUUGGCGUCAGAAGGGAAUGUUG [salish99_ex5_r4_107] (Eterna round: R97, puzzle: Exclusion 5)', 'MS2 coat protein', 'nM', 55.9),
  ('GUAGAGUCAGGAUAUACGAGAUCGAUAGAUCGGCGAUCCCUACAUGAGGAUCACCCAUGUAGAAGGGACUCUAC [Mat - Exclusion 2 - Eli Mod - D12] (Eterna round: R97, puzzle: Exclusion 2)', 'MS2 coat protein', 'nM', 37.6),
  ('UAAACAAGCUUAAGAUCCUACAUGAGGAUCACCCAUGUGCUCGUCUUAUAAGGUACUGUGACGAAAGUCACGGUACC [JL TOV1 3.06] (Eterna round: R97, puzzle: Sensor, turn-off variant 1)', 'MS2 coat protein', 'nM', 226),
  ('GCCGUAAGUGUGAGGAUAUACCUAUGGAUACAUAGGUAGAAGGCACAUGAGGAUCACCCAUGUUCUCAAUCGGC [Eli BMX r4m5] (Eterna round: R97, puzzle: Brourd''s mod of Exclusion 4)', 'MS2 coat protein', 'nM', 667),
  ('AGAUGUAGAUACCGAUCCUACAUGAGGAUCACCCAUGUAGCUAGACGUGCACGCGUAGCUCGUCAGACUACCAGAAG [salish99_TOv1_r3_085] (Eterna round: R96, puzzle: Sensor v3, turn-off variant 1)', 'MS2 coat protein', 'nM', 461);

# input for lookup
Data request, read-out apparent KD of MS2 coat protein, for GCAGCUUAGUUAACAGACUGUUACAUGAGGAUCACCCAUGUGCAGGAUAUGGUCUGGAUUACAGGCCAGAAGGGUACAGGCUGC [Eli exng3 - 017] (Eterna round: R96, puzzle: Exclusion NG 3) 10.8
